Kindly supply the reported solubility kinetic values for the records listed here.
measurementParameters: buffer; pH 7.4; 200.0 µM

Enquiry: Which solubility kinetic value belongs to Cc1cc(Br)ccc1NC(=O)CN(C)C(=O)C1=COCCO1 ?
Return: > 55.4 µg/mL

Enquiry: Return reported solubility kinetic; argument: N#Cc1ccccc1OCC(=O)OCC(=O)NC1CCCCC1
Return: > 47.5 µg/mL

Enquiry: Any idea what solubility kinetic was measured for O=C(CCC(=O)c1ccccc1)Nc1ccc(C(=O)O)cc1 ?
Return: > 44.6 µg/mL

Enquiry: Query: solubility kinetic; subject: COc1ccccc1OCCNC(=O)CCS(=O)(=O)c1ccccc1
Return: > 54.5 µg/mL

Enquiry: Consider the compound shown here: Cc1cc(Br)ccc1NC(=S)N1CCOCC1 What is its recorded solubility kinetic?
Return: > 47.3 µg/mL

Enquiry: Please give the measured solubility kinetic for this compound: COc1cc2nc(NC(=O)c3ccccc3)sc(=O)c2cc1OC
Return: < 0.4 µg/mL

Enquiry: GET /values?readout=solubility kinetic&item= O=C(c1ccc(F)cc1)N1CCN(c2ccccn2)CC1
Return: > 42.8 µg/mL

Enquiry: Returns the measured solubility kinetic for the input compound. Input: COc1ccc(NC(=O)c2ccc(F)c(F)c2)c2ccccc12
Return: < 0.7 µg/mL

Enquiry: Find the recorded solubility kinetic belonging to CCCNC(=O)N1CCC(Cc2ccccc2)CC1 and report it.
Return: > 39.1 µg/mL

Enquiry: // solubility kinetic lookup, key: CCOCCOc1cccc(C(=O)NC(c2ccccc2)c2ccccc2)c1
Return: < 0.8 µg/mL

Enquiry: Request the reported solubility kinetic associated with Cc1cc(NC(=O)c2c(C)noc2C)no1
Return: > 33.2 µg/mL

Enquiry: # input compound: CCNC(=O)[C@H]1O[C@@H](n2cnc3c(N)ncnc32)[C@H](O)[C@@H]1O ; wanted: its solubility kinetic
Return: > 46.2 µg/mL

Enquiry: State the recorded solubility kinetic for this entry: CC(C)N1CCN(c2ccc(S(=O)(=O)N3CCOCC3)cn2)CC1
Return: > 53.2 µg/mL

Enquiry: So what's the measured solubility kinetic for this one? Cc1ccc(NC(=O)C2CC(=O)N(C(C)C)C2)cc1C (stereo unspecified)
Return: > 41.2 µg/mL

Enquiry: Give the measured solubility kinetic of O=C(c1ccc(Cl)cc1)N1CCN(c2ncccn2)CC1 .
Return: > 45.4 µg/mL

Enquiry: Please report the recorded solubility kinetic for CC1=NCCN1CCNC(=O)Nc1ccc(C(C)(C)C)cc1 .
Return: > 45.4 µg/mL

Enquiry: Quick check: solubility kinetic of O=C(O)c1nccnc1C(=O)Nc1ccccc1-c1ccccc1 ?
Return: > 47.9 µg/mL

Enquiry: Give the measured solubility kinetic of O=C(COC(=O)c1cccnc1Cl)NC1CCCc2ccccc21 (stereo unspecified) .
Return: > 51.7 µg/mL

Enquiry: What value of measured solubility kinetic is listed for COc1ccc(C2(O)C(=O)Nc3ccc(C)cc32)cc1 (stereo unspecified) ?
Return: > 40.4 µg/mL

Enquiry: Which value of solubility kinetic has been reported for Oc1ccccc1Nc1nc(-c2ccccc2O)nc2ccccc12 in the records?
Return: < 0.2 µg/mL

Enquiry: I would be grateful if you could share the reported solubility kinetic for Cc1ccc(C(=O)NCN2CCN(c3ccccc3)CC2)cc1 .
Return: > 46.4 µg/mL

Enquiry: Returns the measured solubility kinetic for the input compound. Input: CC(C)(C)NC(=O)NC(=O)CN1CCN(c2ccccc2)CC1
Return: > 47.8 µg/mL

Enquiry: I have this compound here, Cc1ccc(NC(=O)CN(C)C(=O)C2CCC2)cc1 , and I need its recorded solubility kinetic.
Return: > 39.1 µg/mL

Enquiry: For the compound shown here, CN(CC(=O)NCCc1ccccc1)CC(=O)Nc1cccc(F)c1 , give the reported solubility kinetic.
Return: > 51.5 µg/mL

Enquiry: I'd like to know its solubility kinetic. The compound in question is O=c1cc(-c2ccccc2)nc(SCc2ccccc2F)[nH]1
Return: < 0.3 µg/mL

Enquiry: Fill blank: measured solubility kinetic of the compound COc1ccc(C)cc1NC(=O)C1CCN(S(C)(=O)=O)CC1 is ____.
Return: > 49 µg/mL
